Kindly state inhibition at 1 µM for each of the entries shown.
System: pERK level in H358 cells
Measurement description: pERK and ERK protein content assay in H358 cells (ELISA)
Assay type: cell-based
Assay conditions: Homo sapiens, NCI-H358, compound 1 μM, 24 h, pERK/ERK ratio compared with DMSO group, read-out: Inhibition rate (%) of pERK level

Value of inhibition at 1 µM reported for the compound `C=CC(=O)N1CC2(CCN(c3nc(N4CC(N5CC[C@H](F)C5)C4)nc4c(OCC(F)(F)F)c(-c5c(C)ccc6[nH]ncc56)c(C5CC5)cc34)CC2)C1` is > 90%

Short answer for `C=CC(=O)N1CC2(CCN(c3nc(N4CC[C@H](N5CC[C@@H](C)C5)C4)nc4c(OCC(F)(F)F)c(-c5c(C)ccc6[nH]ncc56)c(C5CC5)cc34)CC2)C1` : inhibition at 1 µM was > 90%

Record `C=C(F)C(=O)N1CC2(CCN(c3nc(OC4CCN(CCOC)CC4)nc4c(OCC(F)(F)F)c(-c5c(F)cccc5F)c(C5CC5)cc34)CC2)C1` . Reported inhibition at 1 µM: > 90%

----------
Give measured inhibition at 1 µM for each item. Keep answers brief.
Tested on: pERK level in H358 cells
Measurement description: pERK and ERK protein content assay in H358 cells (ELISA)
Format: cell-based
Assay conditions: Homo sapiens, NCI-H358, compound 1 μM, 24 h, pERK/ERK ratio compared with DMSO group, read-out: Inhibition rate (%) of pERK level

Looking up `C=CC(=O)N1CC2(CCN(c3nc(N4CC(N5C[C@H](OC)[C@@H](F)C5)C4)nc4c(OCC(F)(F)F)c(-c5c(C)ccc6[nH]ncc56)c(C5CC5)cc34)CC2)C1` , I see its inhibition at 1 µM listed as > 90%

Value of measured inhibition at 1 µM for the entry `C=C(C(=O)N1CC2(CCN(c3nc(OC4CCN(CCOC)CC4)nc4c(OCC(F)(F)F)c(-c5c(C)ccc6[nH]ncc56)c(C5CC5)cc34)CC2)C1)C(F)(F)F` : 50 to 90%

inhibition at 1 µM measured on `C=C(F)C(=O)N1CC2(CCN(c3nc(N4CC(N5CC(OC)C5)C4)nc4c(OCC(F)(F)F)c(-c5c(C)ccc6[nH]ncc56)c(C5CC5)cc34)CC2)C1` = > 90%

The recorded inhibition at 1 µM for entry `C=CC(=O)N1CC2(CCN(c3nc(N4CC(N5CCC[C@@H]5CO)C4)nc4c(OCC(F)(F)F)c(-c5c(C)ccc6[nH]ncc56)c(C5CC5)cc34)CC2)C1` equals > 90%

The measured inhibition at 1 µM associated with `C=CC(=O)N1CC2(CCN(c3nc(OC4CCN(CCOC)CC4)nc4c(OCC(F)(F)F)c(-c5c(O)cccc5F)c(C5CC5)cc34)CC2)C1` reads > 90%

----------
Measurement description: Pharmacokinetic evaluation in mice
Assay type: in vivo, male ICR mice
Assay conditions: male, ICR, mouse, plasma, iv, 2 mg/kg, read-out: Tmax
Procedure: The compounds were administered by intravenous injection at a dose of 2 mg/kg and oral gavage at a dose of 10 mg/kg (0.5% CMC-Na suspension). […] The compound concentration in the plasma was determined by liquid chromatography-tandem mass spectrometry, and the corresponding pharmacokinetic parameters were obtained according to a plasma concentration-time curve.
Reported endpoint: Tmax (min)
Could you give me the number in min? Just the number is fine.

Form: compound = `C=CC(=O)N1CC2(CCN(c3nc(N4CC(N5CCC5)C4)nc4c(OCC(F)(F)F)c(-c5c(C)ccc6[nH]ncc56)c(C5CC5)cc34)CC2)C1` ; Tmax = 4.98

The value of Tmax measured for the compound `C=CC(=O)N1CC2(CCN(c3nc(OC4CC5(CCN(CCOC)CC5)C4)nc4c(OCC(F)(F)F)c(-c5c(C)ccc6[nH]ncc56)c(C5CC5)cc34)CC2)C1` turned out to be 30

Data point: C=CC(=O)N1CC2(CCN(c3nc(OC4CCN(CCOC)CC4)nc4c(OCC(F)(F)F)c(-c5c(C)ccc6[nH]ncc56)c(C5CC5)cc34)CC2)C1 [B, reference compound] ; Tmax = 4.98

Summary for this compound, `C=CC(=O)N1CC2(CCN(c3nc(N4CC(N5CCCC5)C4)nc4c(OCC(F)(F)F)c(-c5c(C)ccc6[nH]ncc56)c(C5CC5)cc34)CC2)C1` : Tmax is 4.98

----------
Tested on: pERK level in H358 cells
Measurement description: pERK and ERK protein content assay in H358 cells (ELISA)
Assay type: cell-based
Assay conditions: Homo sapiens, NCI-H358, compound 1 μM, 24 h, pERK/ERK ratio compared with DMSO group, read-out: Inhibition rate (%) of pERK level
Assign inhibition at 1 µM to each entry below.

// inhibition at 1 µM value for `C=CC(=O)N1CC2(CCN(c3nc(N(C)CCN(C)C)nc4c(OCC(F)(F)F)c(-c5c(C)ccc6[nH]ncc56)c(C5CC5)cc34)CC2)C1` : > 90%

The reported value for `C=C(F)C(=O)N1CC2(CCN(c3nc(O[C@H]4CCN(C5COC5)C4)nc4c(OCC(F)(F)F)c(-c5c(C)ccc6[nH]ncc56)c(C5CC5)cc34)CC2)C1` in terms of inhibition at 1 µM is 50 to 90%

Value of inhibition at 1 µM reported for the compound `C=CC(=O)N1CC2(CCN(c3nc(N4CCC5(CCN(C)CC5)C4)nc4c(OCC(F)(F)F)c(-c5c(C)ccc6[nH]ncc56)c(C5CC5)cc34)CC2)C1` is > 90%

// inhibition at 1 µM lookup, compound = `C=CC(=O)N1CC2(CCN(c3nc(N4CC5(C4)[C@@H](OC)CCN5C)nc4c(OCC(F)(F)F)c(-c5c(C)ccc6[nH]ncc56)c(C5CC5)cc34)CC2)C1` , result: > 90%

Recorded inhibition at 1 µM (compound `C=CC(=O)N1CC2(CCN(c3nc(N4CC[C@@H](N(C)C)C4)nc4c(OCC(F)(F)F)c(-c5c(C)ccc6[nH]ncc56)c(C5CC5)cc34)CC2)C1` ): > 90%

----------
Exercise: state measured inhibition at 1 µM for each of the compounds provided.
System: pERK level in H358 cells
Measurement description: pERK and ERK protein content assay in H358 cells (ELISA)
Assay type: cell-based
Assay conditions: Homo sapiens, NCI-H358, compound 1 μM, 24 h, pERK/ERK ratio compared with DMSO group, read-out: Inhibition rate (%) of pERK level

Input `C=C(F)C(=O)N1CC2(CCN(c3nc(N4CC5(CCN(CCOCC)CC5)C4)nc4c(OCC(F)(F)F)c(-c5c(C)ccc6[nH]ncc56)c(C5CC5)cc34)CC2)C1` . Output inhibition at 1 µM: > 90%

Query `C=CC(=O)N1CC2(CCN(c3nc(N4CC[C@@H](N5CC[C@@H](F)C5)C4)nc4c(OCC(F)(F)F)c(-c5c(C)ccc6[nH]ncc56)c(C5CC5)cc34)CC2)C1` yields inhibition at 1 µM of > 90%

What the record says about C=CC(=O)N1CC2(CCN(c3nc(OC4CC5CC4CN5CCOC)nc4c(OCC(F)(F)F)c(-c5c(C)ccc6[nH]ncc56)c(C5CC5)cc34)CC2)C1 (stereo not drawn) : inhibition at 1 µM is 50 to 90%

----------
System: pERK level in H358 cells
Measurement description: pERK and ERK protein content assay in H358 cells (ELISA)
Type: cell-based
Assay conditions: Homo sapiens, NCI-H358, compound 1 μM, 24 h, pERK/ERK ratio compared with DMSO group, read-out: Inhibition rate (%) of pERK level
Reported endpoint: inhibition at 1 µM

Per the reported pERK level in H358 cells data, `C=CC(=O)N1CC2(CCN(c3nc(N4CC(N5CCOCC5)C4)nc4c(OCC(F)(F)F)c(-c5c(C)ccc6[nH]ncc56)c(C5CC5)cc34)CC2)C1` has inhibition at 1 µM of > 90%

Observed inhibition at 1 µM on pERK level in H358 cells, entry `C=C(F)C(=O)N1CC2(CCN(c3nc(OC4CC5(C4)CN(C)C5)nc4c(OCC(F)(F)F)c(-c5c(C)ccc6[nH]ncc56)c(C5CC5)cc34)CC2)C1` , equals > 90%

Measured inhibition at 1 µM (pERK level in H358 cells), entry `C=CC(=O)N1CC2(CCN(c3nc(N4CC(N5CC[C@H](C#N)C5)C4)nc4c(OCC(F)(F)F)c(-c5c(C)ccc6[nH]ncc56)c(C5CC5)cc34)CC2)C1` : > 90%

Form field inhibition at 1 µM for item `C=CC(=O)N1CC2(CCN(c3nc(N4CC5(CCN(C6CC6)CC5)C4)nc4c(OCC(F)(F)F)c(-c5c(C)ccc6[nH]ncc56)c(C5CC5)cc34)CC2)C1` on pERK level in H358 cells: 50 to 90%

# lookup: `C=CC(=O)N1CC2(CCN(c3nc(N4CC(N5CC(C#N)C5)C4)nc4c(OCC(F)(F)F)c(-c5c(C)ccc6[nH]ncc56)c(C5CC5)cc34)CC2)C1` on pERK level in H358 cells, inhibition at 1 µM = > 90%
